- assay-summary: NCI Yeast Anticancer Drug Screen. Data for the bub3 strain (AID 167)
- study-conditions: S. cerevisiae bub3 mutant strain, at 50.0 µM, stronger effect = higher value
The panel holds about 79,000 compounds, 15% with a hit somewhere; the sample as a whole holds those more often.
Assign 1.0 to entries whose growth inhibition meets or exceeds -10%; assign 0.0 to the rest.

Answered examples (3):
                            compound  qualitative_label
0        CC/C(C=O)=C\NC(=O)Nc1ccccc1                0.0
1  COC(C)CC(=O)O (centres undefined)                0.0
2                      O=S(O)OS(=O)O                1.0

Kindly determine if growth inhibition recorded for CC(=O)OC1CCC2(C)C(CCC3(C)C2CCC2C4C5OC(=O)C4(CCC5(C)C)CCC23C)C1(C)C (centres undefined) is above or exactly -10%.
0.0

Kindly determine if growth inhibition recorded for NC1(C(=O)O)CCCc2ccccc21 (centres undefined) is above or exactly -10%.
0.0

Kindly determine if growth inhibition recorded for Cn1c(=O)c2c(nc(CCC(N)=O)n2C)n(C)c1=O is above or exactly -10%.
1.0

Kindly determine if growth inhibition recorded for CN(C)C(=O)CCCCC(=O)N(C)C is above or exactly -10%.
1.0

Kindly determine if growth inhibition recorded for CC(=O)[C@H]1CC[C@H]2[C@@H]3CC[C@H]4C[C@@H](OC(c5ccccc5)(c5ccccc5)c5ccccc5)CC[C@]4(C)[C@H]3CC[C@]12C is above or exactly -10%.
1.0

Kindly determine if growth inhibition recorded for O=C(c1ccco1)N(C(=S)N1CCN(c2ccccc2)CC1)c1ccccc1 is above or exactly -10%.
0.0

###

- assay-summary: NCI Yeast Anticancer Drug Screen. Data for the sgs1 mgt1 strain (AID 161);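 further: 0% = growth of cultures given vehicle only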
- study-conditions: S. cerevisiae sgs1 mgt1 strain, at 50.0 µM, stronger effect = higher value
This is part of a sample that, as a whole, favours compounds with a hit. Of some 79,000 tested, about 15% had one in any assay.
observation-type: growth inhibition (%)
Number in %, nothing else.

Reference set (8 entries):
                                   compound   observation_type  unit_name  meas_value
0                        OCCOc1ccc(OCCO)cc1  growth inhibition          %       -8.95
1            Nc1c(F)c(F)cc(F)c1[N+](=O)[O-]  growth inhibition          %        2.55
2  CCCN(CCCC(NC(C)=O)C(=O)NCc1ccccc1)C(=O)N(C)N=O (centres undefined)  growth inhibition          %       -4.25
3                      C[Si](C)(Cl)c1ccccc1  growth inhibition          %       -11.7
4  CCSC(SCC)C(Nc1ccc([N+](=O)[O-])cc1[N+](=O)[O-])C(OC(C)=O)C(OC(C)=O)C(COC(C)=O)OC(C)=O (centres undefined)  growth inhibition          %        10.2
5              CCc1c(C)c(C)c(C)c(C)c1C(C)=O  growth inhibition          %       -7.35
6  OC1CSCCCSCC(O)CSCCCSC1 (centres undefined)  growth inhibition          %         3.4
7       NCCCCC(N)C(=O)O (centres undefined)  growth inhibition          %       -33.9

Param item = O=S(=O)(c1ccccc1)c1cccc2c1NCCC2 ; retrieve measured growth inhibition.
34.4

Param item = COc1cc2c(cc1OC)C(=O)/C(=C/c1ccc(N(C)C)cc1)CC2 ; retrieve measured growth inhibition.
-28.9

Param item = O=C(c1ccccc1)C(c1ccccc1)S(=O)(=O)N1CCOCC1 (centres undefined) ; retrieve measured growth inhibition.
2.85

Param item = O=C(O)CCC(=O)c1ccc2c3c(cccc13)CC2 ; retrieve measured growth inhibition.
15.2

Param item = CC12CC(=O)OC(Cc3ccccc31)O2 (centres undefined) ; retrieve measured growth inhibition.
-51.7

Param item = CCOCc1cnc(SC)nc1N ; retrieve measured growth inhibition.
-9.45

###

growth inhibition reference
- assay-summary: NCI Yeast Anticancer Drug Screen. Data for the cln2 rad14 strain (AID 165);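 further: 0% = growth equal to vehicle treated cultures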
- study-conditions: S. cerevisiae cln2 rad14 strain, at 50.0 µM, stronger effect = higher value
The panel holds about 79,000 compounds, 15% with a hit somewhere; the sample as a whole holds those more often.
Number in %, nothing else.

Reference set (3 entries):
>>> df
                             compound  unit_name  meas_value
0  Cc1cnc(Sc2ncccn2)c([N+](=O)[O-])c1          %       -28.4
1                   CN1CC(O)CN(C)C1=S          %       -34.6
2         O=C1c2ccccc2SC[C@@H]2CCCN12          %        9.35

Below: the item to evaluate.
Param item = C=CCN1C(N)=C(C#N)C(C#N)(C#N)C1CCC (centres undefined) ; retrieve measured growth inhibition.
15.8

###

- assay-summary: NCI Yeast Anticancer Drug Screen. Data for the mec2-1 strain (AID 157)
- study-conditions: S. cerevisiae mec2-1 strain, at 50.0 µM, stronger effect = higher value
About 79,000 compounds went through this panel and 15% of them were active in at least one assay; those are over-represented in the sample as a whole.
growth inhibition reference
Number in %, nothing else.

Param item = O=C(N=C1SCCN1C(=O)C(C(F)(F)F)C(F)(F)F)C(C(F)(F)F)C(F)(F)F ; retrieve measured growth inhibition.
-3.5

Param item = O=C(Nc1ccc(Cl)cc1)Nc1ccc(Cl)nn1 ; retrieve measured growth inhibition.
7.85

Param item = O=C(O)[C@@H]1OCCOCCO[C@@H](C(=O)O)[C@H](C(=O)O)OCCOCCO[C@H]1C(=O)O ; retrieve measured growth inhibition.
0.05

Param item = CS(=O)(=O)c1ccc2c(c1)-c1ccc([N+](=O)[O-])cc1C2=O ; retrieve measured growth inhibition.
8.8

Param item = N#CC(C(=O)O)C(c1c(Cl)cccc1Cl)C(C#N)C(=O)O (stereo not given) ; retrieve measured growth inhibition.
-6.7

###

growth inhibition reference
- assay-summary: NCI Yeast Anticancer Drug Screen. Data for the mec2-1 strain (AID 157)
- study-conditions: S. cerevisiae mec2-1 strain, at 50.0 µM, stronger effect = higher value
The panel holds about 79,000 compounds, 15% with a hit somewhere; the sample as a whole holds those more often.
Number in %, nothing else.

compound	growth inhibition [%]
O=C(NCCCCCCCCCNC(=O)C12CC3CC(CC(C3)C1)C2)C12CC3CC(CC(C3)C1)C2	9.2
CSc1nc2c(c(O)c(C)c(=O)n2C2OC(COC(C)=O)C(OC(C)=O)C(OC(C)=O)C2OC(C)=O)c(=O)n1C (stereo not drawn)	-4.3
O=C(CSc1c2ccccc2nc2ccccc12)Nc1ccccc1-c1ccccc1NC(=O)CSc1c2ccccc2nc2ccccc12	9.75
CC(O)CSCC(C)O (stereo not drawn)	-4.2
O=S(O)CCCSSSCCCS(=O)O	20.9
COc1ccc(CNc2ccccc2)cc1	11.8
CCOC(=O)c1cccc(N)c1	-22.2
CC(C)OC(=O)Nc1cccc(C(=O)O)c1	-6.55

Param item = NC(Cc1ccc(O)c(O)c1)P(=O)(O)O (stereo not drawn) ; retrieve measured growth inhibition.
-38

Param item = CC(=O)OCC1=COC(OC(=O)CC(C)(C)OC(C)=O)C2C1=CC(OC(=O)CC(C)C)[C@@]21CO1 (stereo partly drawn) ; retrieve measured growth inhibition.
16.4

###

- assay-summary: NCI Yeast Anticancer Drug Screen. Data for the bub3 strain (AID 167)
- study-conditions: S. cerevisiae bub3 mutant strain, at 50.0 µM, stronger effect = higher value
- Description: Growth inhibition of yeast strains with defined genetic alterations is measured as a screen for potential anti-cancer activity. Selected strains with alterations in DNA damage repair or cell cycle control were exposed to compounds and growth inhibition was measured relative to vehicle treated controls. The strain used in this assay is bub3
About 79,000 compounds went through this panel and 15% of them were active in at least one assay; those are over-represented in the sample as a whole.
observation-type: growth inhibition (%)
Number in %, nothing else.

Reference set (5 entries):
                                   compound  meas_value
0  O=C1c2ccccc2C2(Br)C(=O)c3ccccc3C12Br (stereo not drawn)        98.5
1  O=C(C(=Cn1c(=O)cc[nH]c1=S)C(=O)c1ccccc1)c1ccccc1       -15.6
2  CCOC(=O)Nc1nc2ccccc2n1CN1CCN(c2ccccc2)CC1        45.3
3  CC(C(=O)O)/C(=C\c1ccccc1)C(=O)O (stereo not drawn)        12.6
4             CC(C)(C)C(=O)/C(O)=C\c1ccccc1        10.9

Below: the item to evaluate.
Param item = O=C(NCc1ccccc1)/C(=C/c1ccc2c(c1)OCO2)NC(=O)c1ccccc1 ; retrieve measured growth inhibition.
-15.2
